Assignment: determine reported kon for the given binders.
- targetOfAssay: T1, soluble human ILT2-ECD (human, UniProt Q8NHL6 24-461)
- T1 construct: also called LILRB1 extracellular domain
- T1 sequence (Q8NHL6 24-461): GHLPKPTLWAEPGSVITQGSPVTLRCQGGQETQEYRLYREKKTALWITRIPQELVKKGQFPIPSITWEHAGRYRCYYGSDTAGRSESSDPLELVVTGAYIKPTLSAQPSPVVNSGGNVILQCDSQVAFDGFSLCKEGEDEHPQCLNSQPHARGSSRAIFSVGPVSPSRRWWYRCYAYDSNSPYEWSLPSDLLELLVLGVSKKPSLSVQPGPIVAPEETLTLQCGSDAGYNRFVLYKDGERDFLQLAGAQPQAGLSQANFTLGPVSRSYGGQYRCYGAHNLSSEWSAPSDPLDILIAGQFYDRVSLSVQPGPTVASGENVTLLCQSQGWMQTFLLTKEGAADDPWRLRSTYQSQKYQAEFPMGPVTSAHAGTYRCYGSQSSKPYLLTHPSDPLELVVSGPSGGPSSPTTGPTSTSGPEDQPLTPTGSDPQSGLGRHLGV
- protocolSummary: SPR (Biacore), antibody captured on Protein A chip, soluble ILT-ECD injected (1.6-200 nM), 25 C
One number for each entry, in M⁻¹ s⁻¹.

Please review the entries below; each comes with its answer.
binder: anti-ILT2/ILT4 antibody 47H6 (antibody, V domains shown, Mouse hybridoma antibody) VH: EVQLQQSGPELVKPGASVKISCKASGYTFTDYYMNWVKQSHGKSLEWIGDFNPNNGGTTYNQKFEGKATLTVDKSSNTAYMDLRSLTSEDSAVYYCARGRFYYGSLYSFDYWGQGTTLTVSS VL: DIQMTQSPASLSASVGETVTITCRASGNIHNYLAWYQQKQGKSPHLLVYNAKTLADGVPSRFSGSGSGTQYSLKINNLQPEDFGSYYCQHFWTSITFGAGTKLDLK
scaleUnit: M⁻¹ s⁻¹
kon: 42000
--
binder: anti-ILT2 antibody 27F9 (antibody, V domains shown, Mouse hybridoma antibody; also called clone 27F9; anti-ILT2 (27F9)) VH: QVQLKESGPGLVAPSQSLSITCTVSGFSLTNYGVSWVRQPPGKGLEWLGIIWGDGSTNYHSALISRLSISKDNSKSQVFLKLNSLQADDTATYYCAKPNWDTYAMDFWGQGTSVTVSS VL: DIQMTQTTSSLSASLGDRVTISCRASQDISNFLNWYQQKPDGTVKLLIYCTSKLHSGVPSRFSGSGSETDYSLTISNLEQEDIATYFCQQGNTLPPTFGGGTKLEII
scaleUnit: M⁻¹ s⁻¹
kon: 210000
--
binder: anti-ILT2/ILT4 antibody 51A1 (antibody, V domains shown, Mouse hybridoma antibody) VH: EVQLVESGGGLVQPKGSLKLSCAASGFTFNTYAMHWVRQAPGKGLEWVARIRSKSSNYATYYADSVKDRFTISRDDSQSMLYLQMNNLKTEDTAMYYCVRDGIYYYGTMYYYAMDYWGQGTSVTVSS VL: NIVLTQSPASLAVSLGQRATISCRASESVDYYGNSFMYWYQQKPGQPPKLLIYFASNLESGVPARFSGSGSRTDFTLTIDPVEAADAASYYCQQNNEDPWTFGGGTKLEIK
scaleUnit: M⁻¹ s⁻¹
kon: 39000

Let us move to another entry and its kon.
Looking up anti-ILT2/ILT4 antibody 73D1 (antibody, V domains shown, Mouse hybridoma antibody; Shares its light chain variable region with 73C4) VH: AVQLQQSGPELVKPGASVKISCKASGYTFTDYYINWVKQSHGKSLQWIGNVNPNDGGTTYNQKFKGKATLTVDKSSSTAYMELRSLTSEDSAVYYCARREIYFYGTIYYYAMDYWGQGTSVTVSS VL: DIVLTQSPASLAVSLGQRATISCRASESVDYYGNSFMYWYQQKPGRPPNLLIYFASNLESGVPARFSGSGSRTDFTLTIDPVEADDAATYYCQQNNEDPWTFGGGTKLEIK , I see its kon listed as 50000
